The following compounds are shown together with reported Cl/F_obs values.
Type: in vivo, rat
MEASUREMENT CONTEXT: rat; dosed as prodrug, 10 mg/kg equivalent of Base Structure; analyte Parent (Base Structure); Combined (average ± std. dev.)
PROPERTY: Cl/F_obs

COMPOUND: CCCCCC(=O)N1C(Cc2ccc(OP(=O)([O-])[O-])cc2)C(=O)N(C(C(=O)NCCCCCC(N)=O)C(C)CC)C12CCN(C)CC2.[Na+].[Na+] (stereo not shown)
REPORTED: 0.2 ± 0.1 (mg/kg)/(ng/ml)/h

COMPOUND: CCCCCC(=O)NC(Cc1ccc(OP(=O)(OCCN(C)C)OCCN(C)C)cc1)C(=O)NC(C(=O)NCCCCCC(N)=O)C(C)CC (stereo not shown)
REPORTED: 1.9 ± 1.1 (mg/kg)/(ng/ml)/h

COMPOUND: CCCCCC(=O)NC(Cc1ccc(OC(=O)N2CCN(C)CC2)cc1)C(=O)NC(C(=O)NCCCCCC(N)=O)C(C)CC (stereo not shown)
REPORTED: 6.207 (mg/kg)/(ng/ml)/h

COMPOUND: CCCCCC(=O)NC(Cc1ccc(OC(=O)NCCN(C)C)cc1)C(=O)NC(C(=O)NCCCCCC(N)=O)C(C)CC (stereo not shown)
REPORTED: 0.2 ± 0 (mg/kg)/(ng/ml)/h
